# System: SK-MEL-5 melanoma
# runDescription: NCI tumour cell line growth inhibition, 48 h
Please mark Fulfilled if the recorded TGI is equal to or greater than 30 µM, and Not fulfilled if it falls below.

{"columns": ["compound", "assignedLabel"],
 "data": [
  ["COc1ccc2c3c1O[C@H](c1ccc(O)cc1)[C@H]3[N+](C)(C)CC2", "Fulfilled"],
  ["COc1cc2c3c([nH]c2c(OC)c1OC)CCN(Cc1ccccc1)C3", "Fulfilled"],
  ["O=C(Cc1nc2ccccc2o1)C(=O)Nc1cccc(C(F)(F)F)c1", "Fulfilled"],
  ["CCOc1ccc(NC(=O)CCc2nnc(SC)o2)cc1", "Fulfilled"],
  ["O=NN(CCF)C(=O)NC1CCSCC1", "Fulfilled"],
  ["N#CC1(C#N)C(c2ccccc2)C=CC12OCCCO2 (stereo unspecified)", "Fulfilled"],
  ["CC[C@@]1(O)C(=O)OCc2c1cc1n(c2=O)Cc2c-1nc1ccccc1c2/C=N\\NC(=O)C(N)CCSC (stereo partly specified)", "Not fulfilled"],
  ["C[N+](C)(C)c1ncnc2c1ncn2C1CCCO1 (stereo unspecified)", "Fulfilled"],
  ["COc1ccc(OC(=O)CC2Cc3cc(OC)c(OC)c(OC)c3-c3ccc(SC)c(=O)cc32)cc1 (stereo unspecified)", "Not fulfilled"],
  ["COC(=O)Cc1c(-c2c(CC(=O)OC)c3ccccc3n2C2OC(COC(C)=O)C(OC(C)=O)C(OC(C)=O)C2OC(C)=O)[nH]c2ccccc12 (stereo unspecified)", "Fulfilled"]
]}

Please indicate if the recorded TGI for O=C(NCCNCCO)c1cccc2ccc(-c3ccccc3)nc12 meets or exceeds 30 µM.
Not fulfilled

Please indicate if the recorded TGI for Cc1cnc2c(c1C)C(=O)c1ccccc1C2=O meets or exceeds 30 µM.
Not fulfilled

Please indicate if the recorded TGI for CCc1ccc2c(c1)N(CC(C)CN(C)C)c1ccccc1S2 (stereo unspecified) meets or exceeds 30 µM.
Not fulfilled

Please indicate if the recorded TGI for O=c1[nH]nc(-c2ccccc2)n1O meets or exceeds 30 µM.
Fulfilled

Please indicate if the recorded TGI for CC(CO)(Nc1ccc([N+](=O)[O-])cc1[N+](=O)[O-])C(=O)O (stereo unspecified) meets or exceeds 30 µM.
Fulfilled

Please indicate if the recorded TGI for COc1ccc2c(c1)C(=O)c1c-2c(OCCN(C)C)nc2ccccc12 meets or exceeds 30 µM.
Not fulfilled

Please indicate if the recorded TGI for CC1c2ccccc2CCN1c1ccc(CO)c(Cl)c1 (stereo unspecified) meets or exceeds 30 µM.
Not fulfilled

Please indicate if the recorded TGI for O=C(O)CCNS(=O)(=O)c1ccc([N+](=O)[O-])cc1 meets or exceeds 30 µM.
Fulfilled

Please indicate if the recorded TGI for CCN(CC)c1nnc(CCCCCCCCc2nnc(N(CC)CC)o2)o1 meets or exceeds 30 µM.
Fulfilled

Please indicate if the recorded TGI for CC1CC(C#N)=C2NCCN2C1=O (stereo unspecified) meets or exceeds 30 µM.
Not fulfilled

Please indicate if the recorded TGI for c1ccc(N=C2c3ccsc3C(=Nc3ccccc3)c3ccsc32)cc1 meets or exceeds 30 µM.
Not fulfilled

Please indicate if the recorded TGI for CSc1ccc(C2=NN(C(C)=O)C(c3ccc(-c4ccc(Cl)cc4)o3)C2)cc1 (stereo unspecified) meets or exceeds 30 µM.
Fulfilled

Please indicate if the recorded TGI for COc1cc(CNc2nc3ccccc3nc2C(=O)O)cc(OC)c1OC meets or exceeds 30 µM.
Fulfilled

These entries and their values trace back to PubChem BioAssay (NCI).
